- MEASURED_ON: human iNOS (Homo sapiens, UniProt P35228)
- Sequence (P35228 whole entry): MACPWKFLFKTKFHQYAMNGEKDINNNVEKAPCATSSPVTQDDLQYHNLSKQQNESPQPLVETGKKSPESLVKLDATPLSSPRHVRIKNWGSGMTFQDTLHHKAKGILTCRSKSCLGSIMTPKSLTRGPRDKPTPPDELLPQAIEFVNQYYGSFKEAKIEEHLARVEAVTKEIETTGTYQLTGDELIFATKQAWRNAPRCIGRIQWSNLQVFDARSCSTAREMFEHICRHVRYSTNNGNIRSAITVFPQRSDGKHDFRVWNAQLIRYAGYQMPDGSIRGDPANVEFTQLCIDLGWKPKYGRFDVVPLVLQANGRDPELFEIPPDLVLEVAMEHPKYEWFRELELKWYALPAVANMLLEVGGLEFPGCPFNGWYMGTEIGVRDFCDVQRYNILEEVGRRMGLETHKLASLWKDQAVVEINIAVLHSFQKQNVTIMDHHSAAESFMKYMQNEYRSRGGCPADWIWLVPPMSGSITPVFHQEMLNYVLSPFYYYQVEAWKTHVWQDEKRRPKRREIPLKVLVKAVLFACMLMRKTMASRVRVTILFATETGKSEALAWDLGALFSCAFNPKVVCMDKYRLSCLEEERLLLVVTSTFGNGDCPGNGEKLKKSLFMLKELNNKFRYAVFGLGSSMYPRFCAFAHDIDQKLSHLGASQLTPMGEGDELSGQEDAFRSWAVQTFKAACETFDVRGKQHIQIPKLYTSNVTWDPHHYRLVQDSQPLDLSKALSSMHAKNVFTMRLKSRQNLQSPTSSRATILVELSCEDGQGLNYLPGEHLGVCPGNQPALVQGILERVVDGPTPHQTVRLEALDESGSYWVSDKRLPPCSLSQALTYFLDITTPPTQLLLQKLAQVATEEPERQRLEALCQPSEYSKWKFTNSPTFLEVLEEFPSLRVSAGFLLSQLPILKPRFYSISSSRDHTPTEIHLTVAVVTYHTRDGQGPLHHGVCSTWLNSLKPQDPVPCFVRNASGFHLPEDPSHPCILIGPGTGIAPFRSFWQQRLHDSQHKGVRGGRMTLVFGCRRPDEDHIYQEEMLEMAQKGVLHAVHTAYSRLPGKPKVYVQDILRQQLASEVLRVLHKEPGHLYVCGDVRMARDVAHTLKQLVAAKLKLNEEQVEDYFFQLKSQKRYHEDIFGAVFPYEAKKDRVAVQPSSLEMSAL
- METHOD: DAN assay of nitric oxide production (hiNOS)
- DETAILS: enzyme expressed in HEK293 cells transiently transfected with human iNOS

{"STRUCTURE": "CCCc1nc2ccccc2n1Cc1cc(=O)[nH]c2c(F)c(F)ccc12", "EC50": "≤ 5 µM"}
{"STRUCTURE": "O=C(c1ccco1)N(Cc1cc(=O)[nH]c2ccc(F)cc12)c1ccccc1", "EC50": "> 5 µM"}
{"STRUCTURE": "O=c1cc(Cn2c(Cn3ccnc3)nc3ccccc32)c2ccc(F)c(F)c2[nH]1", "EC50": "> 5 µM"}
{"STRUCTURE": "O=C(C1CC1)N(Cc1cc(=O)[nH]c2c(F)cccc12)c1cccc(Cl)c1", "EC50": "> 5 µM"}
{"STRUCTURE": "CCC(=O)N(Cc1cc(=O)[nH]c2ccccc12)c1ccccc1", "EC50": "> 5 µM"}
{"STRUCTURE": "Cc1ncsc1C(=O)N(Cc1cc(=O)[nH]c2c(F)c(F)ccc12)c1ccc(F)cc1", "EC50": "≤ 5 µM"}
{"STRUCTURE": "Cc1ncsc1C(=O)N(Cc1cc(=O)[nH]c2c(F)cccc12)c1cccc(Cl)c1", "EC50": "> 5 µM"}
